Taken from patent US20100267561A1.

# Test system: barnyardgrass (Echinochloa crus-galli)
# protocol.summary: Test B flooded paddy test plant response
# Type: in vivo
# condition.parameters: Flood (flooded paddy test), 250 g ai/ha; scale 0 to 100, 0 no effect, 100 complete control
# maps each entry to its Plant response rating, Barnyardgrass
reported.endpoint: Plant response rating, Barnyardgrass

                                 mol_smiles  endpoint_value
0  CCc1cc(-c2ccc(Cl)cc2)nn1-c1c(OC(=O)C(C)(C)C)cnn(C)c1=O             100
1  Cn1ncc(O)c(-c2nn(-c3ccc(Cl)cc3)cc2Br)c1=O               0
2  C#CCOC(=O)Oc1cnn(C)c(=O)c1-n1nc(-c2ccc(Cl)cc2)cc1C              70
3  Cn1ncc(O)c(-c2nn(-c3ccc(Cl)cc3)cc2Cl)c1=O              30
4  Cc1cc(-c2ccc(Cl)cc2)nn1-c1c(OC(=O)C(C)C)cnn(C)c1=O             100
5  Cc1cc(-c2ccc(Cl)cc2)nn1-c1c(OC(=O)c2ccccc2)cnn(C)c1=O              30
6  Cc1nn(C)c(=O)c(-n2nc(-c3ccc(Br)cc3)cc2C)c1O               0
